# method: inhibitors of Chlamydomonas gravitaxis, primary screen, whole organism, Chlamydomonas reinhardtii, WT vs cilia-less mutant, absorbance, 96-well (AID 463189);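 also: 0% = wild type cc124 cells in DMSO and 100% = ciliumless bld1 mutant cells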
# condition description: OD600 absorbance, 2 days, at 10 µM, stronger effect = higher value
Active and inactive are the calls of the source.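 The calls were made as follows: active = inhibition at or above 50% relative to wild type and mutant plate controls; inactive = inhibition below 50%.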
result type: inhibition

1) Nc1nnc(CSCc2ccc(F)cc2)s1 | 3.98% (inactive)
2) CCCOC(=O)CSC1=C(C#N)C(c2ccccc2OCC)C(C#N)C(=O)N1 (stereo not given) | -14.4% (inactive)
3) CCOC(=O)c1sc(-n2[nH]c(C)cc2=O)nc1C | -4.12% (inactive)
4) O=C1OC(c2ccc(O)cc2)(c2ccc(O)cc2)c2ccccc21 | -5.48% (inactive)
5) CCCCCn1c2nc3ccccc3nc2c2c(=O)n(CC(C)C)cnc21 | 16.4% (inactive)
6) CCCCOc1ccc(CN(C)c2ncnc(N)n2)cc1 | 29.8% (inactive)
7) Cc1cccc2c1NC(C)CC2C (stereo not given) | 5.59% (inactive)
8) CCOC(=O)c1c(-c2cccs2)csc1NC(=O)CCCC(=O)O | 16.8% (inactive)
9) CCOc1ccc(C2/C(=C(/O)c3ccc(OC)cc3)C(=O)C(=O)N2c2cc(C)on2)cc1OC (stereo not given) | -9.21% (inactive)
10) COc1ccc(OC)c2c1CCC2=O | 9.78% (inactive)
11) CCOC(=O)CCc1c(C)c(C#N)c2nc3ccccc3n2c1-n1ccnc1 | -3.19% (inactive)
12) CCOc1ccc(Cc2nc(N)nc(N)n2)cc1 | 6.25% (inactive)
13) CC(C)CC(NC(=O)OC(C)(C)C)C(=O)NCc1ccccc1 (stereo not given) | 1.86% (inactive)
14) Cc1nc(SC2C=CS(=O)(=O)C2)n[nH]1 (stereo not given) | -12% (inactive)
15) CC1(C)NC(=O)N(CC(O)COc2ccccc2C(=O)Nc2ccccc2)C1=O (stereo not given) | 18.8% (inactive)
16) CCNc1nc(Oc2ccccc2)nc(OC(C)C(=O)OCC)n1 (stereo not given) | -3.35% (inactive)
17) NC(Cc1ccc(Oc2ccc(O)cc2)cc1)C(=O)O (stereo not given) | -4.82% (inactive)
18) CCCCCCc1cc2cc(C(=O)NC)c(=N)oc2cc1O | -9.65% (inactive)
19) N=c1ncn(CC(O)CN2CCOCC2)c2nc(N3CCOCC3)[nH]c12 (stereo not given) | 17.5% (inactive)
20) COCCN(C(=O)Nc1ccccc1)c1ccccc1C | -5.98% (inactive)
21) C=C(Br)Cn1c(CCCC)nc2ccccc21 | 35.5% (inactive)
22) COc1cc(NS(=O)(=O)c2ccc(N)cc2)nc(OC)n1 | 20.1% (inactive)
23) CCC1(C)Cc2c(sc3c2c(=O)n(C)c2nnc(SCC(=O)c4ccc(Cl)cc4)n32)CO1 (stereo not given) | -10.8% (inactive)
24) Brc1cccc(-c2cnc3n2CCCCC3)c1 | 59.2% (active)
25) COc1ccc(CCN2CCC(Nc3nc4ccccc4n3Cc3ccc(F)cc3)CC2)cc1 | 133% (active)

----------
# method: inhibitors of E-selectin induction by TNFa, primary screen, imaging, HUVEC, immunofluorescence, MLSMR starter and 10KST1 sets (AID 487);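 also: 100% = median nuclei count of all wells on the same plate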
# condition description: HUVEC TNFalpha-induced E-selectin immunofluorescence imaging, at 2 µM; measured here: cell number, toxicity
result type: nuclei count (%)

1) COc1ccc(CCN2CCC(Nc3nc4ccccc4n3Cc3ccc(F)cc3)CC2)cc1 | 107
2) C=C(C)CSC1=C(C#N)C(c2ccsc2)CC(=O)N1 (stereo not given) | 121
3) COc1ccc(OC)c(C(O)c2coc3ccc(O)c(CN4CCOCC4)c23)c1 (stereo not given) | 142
4) CCOC(=O)c1cc2c(=O)n3cccc(C)c3nc2n(C)c1=N | 142
5) COc1cc(C2C(C#N)=C(N)Oc3cc(C)n(CCc4ccccc4)c(=O)c32)cc2c1OCO2 (stereo not given) | 165
6) COc1cccc(N2CCN(C3CC(=O)N(c4cccc(Cl)c4)C3=O)CC2)c1 (stereo not given) | 80.7
7) CCOc1c(C)cc2[nH]c(CCC(=O)O)nc2c1C | 116
8) CS(=O)(=O)CCC(C(=O)n1nnc2ccccc21)N1C(=O)c2ccccc2C1=O (stereo not given) | 134
9) COc1ccc(C(=O)C(CN2CCCC2)c2ccccc2)cc1 (stereo not given) | 178
10) COCCOC(=O)c1c(C)nc(SCC(=O)Nc2ccc(OC)cc2)c(C#N)c1-c1ccco1 | 90

Reference source: PubChem BioAssay
